Tested System: pooled human IgG (human IgG1,2,3 and 4)
Result Type: Enzyme activity endpoint: scIgG (ng/µL)
Quick note: give the figure in ng/µL, leave out the unit.

Answered cases to consult:
PRT-673 (protein) MQITSVWTKGVTPPTPEQFRYYNEDVLHAPYKPHQGWYDITKTFNGKDNLLCGAATAGNMLHWWFDQNKTQIEAYLKKYPEKQKIIFNNQKMFDLRKAINTKDSQTNSALFSYFKDKAFPNLSARQRGVMPDLVLDMFINGYYLNVGKTQSTDVNRPYQTRDKRGGIFDHVFGRGDQTKLLTARHDLKNKTLNEISQLIKQELSEGKALALSHTYANVSISHVINLWGADFNAEGNLEAIYVTDSDSDAKIGMKKYYVGKNASGKVAISAKKIEGENIGAQVLGLYTLSTGKDIWQKLSLEHHHHHH | 989
PRT-680 (protein) MQITSVWTKGVTPLTPEQFRYNNEDVIHAPYLPHQGWYDITKAFDGKDNLLCGAATAGNMLHWWFDQNKTEIEAYLSKHPEKQKIIFNNQELFDLRAAINTKDSQTNSALFNYFRDKAFPNLSARQLGVMPDLVLDMFINGYYLNVFKTQSTDVNRPYQDKDKRGGIFDAVFTRGDQTTLLTARHDLKNKGLNDISTIIKQELTEGKALALSHTYANVSISHVINLWGADFNAEGNLEAIYVTDSDANASIGMKKYYVGINAHGHVAISAKKIEGENIGAQVLGLFTLSSGKDIWQKLSLEHHHHHH | 277

**Q:** Report Enzyme activity endpoint: scIgG for PRT-653 (protein) MQITSVWTKGVTPLTPEQFRYNNEDVIHAPYLAHQGWYDITKAFDGKDNLLCGAATAGNMLHWWFDQNKTEIEAYLSKHPEKQKIIFNNQELFDLKAAIDTKDSQTNSQLFNYFRDKAFPNLSARQLGVMPDLVLDMFINGYYLNVFKTQSTDVNRPYQDKDKRGGIFDAVFTRGDQTTLLTARHDLKNKGLNDISTIIKQELTEGRALALSHTYGNVRSSHVINLWGADFNAEGNLEAIYVTDSDANASIGMKKYFVGINAHGHVAISAKKIEGENVGAQVLGLFTLSSGKDIWQKLSLEHHHHHH please.
**A:** 0

**Q:** Similarly, PRT-626 (protein) MQITSVWTKGVTPLTPEQFRYNNEDVIHAPYLAHQGWYDITKAFDGKDNLLCGAATAGNMLHWWFDQNKTEIEAYLSKHPEKQKIIFNNQELFDLKAAIDTKDSQTNSQLFNYFRDKAFPNLSARQLGVMPDLVLDMFINGYYLNVFKTQSTDVNRPPDDKDKRGGIFDHVFNRGDQTTLLTARHDLKNKGLNDISTIIKQELTEGRALALSHTYANVSISHVINLWGADFNAEGNLEAIYVTDSDANASIGMKKYFVGINAHGHVAISAKKIEGENIGAQVLGLFTLSSGKDIWQKLSLEHHHHHH ?
**A:** 225

**Q:** Item: PRT-631 (protein) MQITSVWTKGVTPLTPEQFRYNNEDVIHAPYLAHQGWYDITKAFDGKDNLLCGAATAGNMLHWWFDQNKEEIDNYLKKYPDKQKIIFNNQELFDLKAAIDTKDSQTNSQLFNYFRDKAFPNLSARQLGVMPDLVLDMFINGYYLNVFKTQSTDVNRPYQDKDKRGGIFDAVFTRGDQTTLLTARHDLKNKGLNDISTIIKQELTEGRALALSHTYANVSISHVINLWGADFNAEGNLEAIYVTDSDANASIGMKKYFVGINAHGHVAISAKKIEGENIGAQVLGLFTLSSGKEIWKKLSLEHHHHHH
**A:** 0

**Q:** Then this protein: PRT-675 (protein) MQITSVWTKGVTPPTMDDFTINGEDVFHAPYVANQGWYDITKTFNGKDDLLCGAATAGNMLHWWFDQNKEQIERYLKKHPEKQKIIFNNQEMFDLKEAINTKDSQTDSKLFNYFRDKAFPNLSARQLGVMPDHVLDMFINGYYLNLTKTQSTDVNRPEDTKDLRGGIFDHVFTRGDQSKLLTARHDLKNKTLKEISDLIKQELTEGKALGLSHTYANVRISHVINLWGADFDAEGNLEAIYVTDSDSNASIGMKKYYVGVNSAGKVAISAKKIEGDNIGAQVLGLYTLSTGKDIWQKLSLEHHHHHH
**A:** 456

**Q:** Another: PRT-617 (protein) MQITSVWTKGVTPLTPEQFRYNNEDVIHAPYLPHQGWYDITKAFDGGDNLLCGAATAGNMLHWWFDQNKTEIEAYLSKYPEKQKIIFNNQELFDLRAAINSKDSQTNSQLFNYFRDKAFPNLSARQLGVMPDLVLDMFINGYYLNVFKTQSTDVNRPYQDPDKRGGIFDDVFKEGDQTTLLTARHDLKNGGLNDISTIIKQELQSGRALALSHTYANVSISHVINLWGADFNAEGNLEAIYVTDSDANQSIGMKKYKVGINAHGHVAISAKKIEGENIGAQVLGLFTLSSGKEIWQKLSLEHHHHHH
**A:** 25

**Q:** Can you check PRT-679 (protein) MQITSVWTKGVTPLTPEQFRYNNEDVIHAPYLAHQGWYDITKTFDGKDNLLCGAATAGNMLHWWFDQNKTEIEAYLSKHPEKQKIIFNNQELFDLKEAINTKDSQTNSQLFNYFRDKAFPNLSARQLGVMPDLVLDMFINGYYLNVFKTQSTDVNRPYQDKDKRGGIFDAVFTRGDQTTLLTARHDLKNKGLNEISTIIKQELTEGKALALSHTYANVSISHVINLWGADFNAEGNLEAIYVTDSDANASIGMKKYFVGINAHGHVAISAKKIEGENIGAQVLGLFTLSSGKDIWQKLSLEHHHHHH next?
**A:** 54

src = patent US20250027068
